Reported Kd values for a set of binders
System Name: T1, huCD3e-mFc (human, UniProt P07766 23-126)
T1 construct: not shown: mFc, not described
T1 sequence (P07766 23-126): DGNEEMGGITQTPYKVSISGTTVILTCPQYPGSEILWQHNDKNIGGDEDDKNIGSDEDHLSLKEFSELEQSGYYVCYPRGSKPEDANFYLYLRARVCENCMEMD
Assay: Pool 3 screen

- Binder: "AC3816 (CD3.312) (scFv, V domains shown, Pool 3 format (remarks)) VH: EVQLVESGGGIVQPGGSLRLSCAASGFTFSTYAMNWVRQAPGKGLEWVGRIRTKRNDYATYYADSVKGRFTISRDDSKNTLYLQMNSLKTEDTAVYYCVRHENFGNSYVSWFAHWGQGTLVTVSS VL: ELVVTQEPSLTVSPGGTVTLTCRSSNGAVTSSNYANWVQQKPGQAPRGLIGGTNKRAPGTPARFSGSGLGGKAALTLSGVQPEDEAVYYCALWYPNLWVFGGGTKLTVL"
  Kd / nM: 4.12
- Binder: "AC3883 (CD3.379) (scFv, V domains shown, Pool 3 format (remarks)) VH: EVQLVESGGGIVQPGGSLRLSCAASGFTFSTYAMNWVRQAPGKGLEWVGRIRTKRNNYATYWADSVKGRFTISRDDSKNTVYLQMNSLKTEDTAVYYCVRHENFGNSYVSWFAHWGQGTLVTVSS VL: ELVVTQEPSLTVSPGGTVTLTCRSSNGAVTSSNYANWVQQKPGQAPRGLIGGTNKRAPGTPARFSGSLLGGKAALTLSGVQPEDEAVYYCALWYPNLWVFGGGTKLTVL"
  Kd / nM: 4.19
- Binder: "AC3812 (CD3.308) (scFv, V domains shown, Pool 3 format (remarks)) VH: EVQLVESGGGIVQPGGSLRLSCAASGFTFSTYAMNWVRQAPGKGLEWVGRIRTKRNDYATYYADSVKGRFTISRDDSKNTAYLQMNSLKTEDTAVYYCVRHENFGNSYVSWFAHWGQGTLVTVSS VL: ELVVTQEPSLTVSPGGTVTLTCRSSNGAVTSSNYANWVQQKPGQAPRGLIGGTNKRAPGTPARFSGSLLGGKAGLTLSGVQPEDEAVYYCALWYPNLWVFGGGTKLTVL"
  Kd / nM: 5.56
- Binder: "AC3815 (CD3.311) (scFv, V domains shown, Pool 3 format (remarks)) VH: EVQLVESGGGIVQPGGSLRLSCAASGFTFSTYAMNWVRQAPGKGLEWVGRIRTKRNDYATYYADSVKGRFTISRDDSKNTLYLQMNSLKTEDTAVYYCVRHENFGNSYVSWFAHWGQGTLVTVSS VL: ELVVTQEPSLTVSPGGTVTLTCRSSNGAVTSSNYANWVQQKPGQAPRGLIGGTNKRAPGTPARFSGSALGGKAALTLSGVQPEDEAVYYCALWYPNLWVFGGGTKLTVL"
  Kd / nM: 4.53
- Binder: "AC3659 (CD3.228) (bispecific antibody, V domains shown, Pool 2 format (remarks)) VH: EVQLVESGGGIVQPGGSLRLSCAASGFTFSTYAMNWVRQAPGKGLEWVGRIRTKRNNYATYYADSVKGRFTISRDDSKNTVYLQMNSLKTEDTAVYYCVRHENFGNSYVSWFAHWGQGTLVTVSS VL: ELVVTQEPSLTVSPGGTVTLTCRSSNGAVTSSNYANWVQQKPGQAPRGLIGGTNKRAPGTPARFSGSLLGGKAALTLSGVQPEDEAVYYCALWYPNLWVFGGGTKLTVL"
  Kd / nM: 5.14
- Binder: "AC3837 (CD3.333) (scFv, V domains shown, Pool 3 format (remarks)) VH: EVQLVESGGGIVQPGGSLRLSCAASGFTFNTYAMNWVRQAPGKGLEWVGRIRTKTNDYATYYADSVKGRFTISRDDSKNTAYLQMNSLKTEDTAVYYCVRHENFGNSYVSWFAHWGQGTLVTVSS VL: ELVVTQEPSLTVSPGGTVTLTCRSSNGAVTSSNYANWVQQKPGQAPRGLIGGTNKRAPGTPARFSGSLGGGKAALTLSGVQPEDEAVYYCALWYPNLWVFGGGTKLTVL"
  Kd / nM: 17.9
